Test target: human serotonin transporter (Homo sapiens)
Construct: purchased PerkinElmer; host or cells: HEK-293
Sequence (P31645 whole entry): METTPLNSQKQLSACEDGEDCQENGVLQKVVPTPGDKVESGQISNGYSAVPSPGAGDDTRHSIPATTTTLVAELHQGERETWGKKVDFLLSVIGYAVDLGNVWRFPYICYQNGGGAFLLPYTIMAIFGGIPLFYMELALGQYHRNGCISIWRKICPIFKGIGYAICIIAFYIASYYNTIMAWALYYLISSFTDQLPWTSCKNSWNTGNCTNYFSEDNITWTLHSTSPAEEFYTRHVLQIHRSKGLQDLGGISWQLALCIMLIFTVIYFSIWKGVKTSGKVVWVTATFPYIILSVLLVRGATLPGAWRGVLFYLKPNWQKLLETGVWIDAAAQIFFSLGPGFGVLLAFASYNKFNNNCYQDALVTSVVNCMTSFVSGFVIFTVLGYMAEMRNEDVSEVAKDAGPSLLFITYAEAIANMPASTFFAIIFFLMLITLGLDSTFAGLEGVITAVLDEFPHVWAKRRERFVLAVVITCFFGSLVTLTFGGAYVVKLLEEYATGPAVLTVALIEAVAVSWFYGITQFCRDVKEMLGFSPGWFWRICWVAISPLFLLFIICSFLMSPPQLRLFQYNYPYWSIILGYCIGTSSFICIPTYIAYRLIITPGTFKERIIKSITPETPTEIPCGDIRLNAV
Procedure text: Serotonin transporter radioligand binding ([3H]-imipramine, HEK-293 membranes)
Condition notes: displacement of [3H]-imipramine, HEK-293 membranes; mean ± SEM of three experiments; read-out: Ki ± SEM SERT
Measured pKi values are reported for all entries that follow.
Reminder that pKi is minus the log10 of a molar concentration.

Worked set:
                                   molecule                               test_target  value_reported
0  COc1ccc2[nH]cc(C3CC(=O)N(CCN4CC=C(c5c[nH]c6ncccc56)CC4)C3=O)c2c1 (stereo not drawn) [Compound 9]  human serotonin transporter (Homo sapiens)            7.04
1  COc1ccc2[nH]cc(C3CC(=O)N(CCCCN4CC=C(c5c[nH]c6ncccc56)CC4)C3=O)c2c1 (stereo not drawn) [Compound 7]  human serotonin transporter (Homo sapiens)            7.23

Next:
Note to self: pKi of COc1ccc2[nH]cc(C3CC(=O)N(CCCN4CC=C(c5c[nH]c6ncccc56)CC4)C3=O)c2c1 (stereo not drawn) [Compound 8] with human serotonin transporter (Homo sapiens) was 7.64

Data origin: paper PMC11508649
